Every entry's value here was drawn from paper PMC10726465.

Target: hERG channel (Homo sapiens)
Sequence (Q12809 whole entry): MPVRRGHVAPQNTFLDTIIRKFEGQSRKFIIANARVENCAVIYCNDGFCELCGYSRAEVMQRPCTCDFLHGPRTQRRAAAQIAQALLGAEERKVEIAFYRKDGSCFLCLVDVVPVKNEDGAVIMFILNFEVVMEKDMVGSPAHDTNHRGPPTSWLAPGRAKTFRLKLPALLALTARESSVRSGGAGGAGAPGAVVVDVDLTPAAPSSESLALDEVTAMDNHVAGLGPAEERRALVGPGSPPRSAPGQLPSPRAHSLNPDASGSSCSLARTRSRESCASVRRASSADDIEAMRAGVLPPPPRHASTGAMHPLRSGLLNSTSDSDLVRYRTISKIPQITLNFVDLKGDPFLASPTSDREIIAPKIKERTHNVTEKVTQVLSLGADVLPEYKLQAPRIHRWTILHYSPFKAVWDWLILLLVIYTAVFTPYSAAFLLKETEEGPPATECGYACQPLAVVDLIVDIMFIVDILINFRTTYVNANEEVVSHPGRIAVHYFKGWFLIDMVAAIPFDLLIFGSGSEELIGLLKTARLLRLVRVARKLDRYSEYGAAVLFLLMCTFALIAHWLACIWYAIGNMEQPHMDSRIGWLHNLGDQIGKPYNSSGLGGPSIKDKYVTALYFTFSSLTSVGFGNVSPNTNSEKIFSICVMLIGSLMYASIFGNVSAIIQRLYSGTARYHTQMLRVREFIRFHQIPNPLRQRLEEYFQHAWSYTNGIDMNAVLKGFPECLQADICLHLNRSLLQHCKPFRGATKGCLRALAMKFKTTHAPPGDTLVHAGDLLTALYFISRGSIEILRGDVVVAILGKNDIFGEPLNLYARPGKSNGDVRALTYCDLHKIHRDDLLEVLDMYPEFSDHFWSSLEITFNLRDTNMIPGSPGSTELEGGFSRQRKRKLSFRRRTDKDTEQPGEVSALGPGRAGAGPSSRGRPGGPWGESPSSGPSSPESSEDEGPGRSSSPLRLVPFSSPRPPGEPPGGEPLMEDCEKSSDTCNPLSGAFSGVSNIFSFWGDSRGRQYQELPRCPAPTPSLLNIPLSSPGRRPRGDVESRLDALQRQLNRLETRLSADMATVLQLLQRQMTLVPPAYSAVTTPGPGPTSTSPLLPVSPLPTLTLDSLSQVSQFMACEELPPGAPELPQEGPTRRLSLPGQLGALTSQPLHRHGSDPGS
Experiment: hERG channel inhibition, Q-patch clamp assay
Conditions: read-out: hERG IC50
pIC50: −log10 of the molar value.
parameter: pIC50

1) CSc1ccc(C(N)=O)cc1-c1ccc2c(cnn2C)c1 [Compound 16]; < 5.00

---

Biological target: androgen receptor (AR) (Homo sapiens, UniProt P10275)
Sequence (P10275 whole entry): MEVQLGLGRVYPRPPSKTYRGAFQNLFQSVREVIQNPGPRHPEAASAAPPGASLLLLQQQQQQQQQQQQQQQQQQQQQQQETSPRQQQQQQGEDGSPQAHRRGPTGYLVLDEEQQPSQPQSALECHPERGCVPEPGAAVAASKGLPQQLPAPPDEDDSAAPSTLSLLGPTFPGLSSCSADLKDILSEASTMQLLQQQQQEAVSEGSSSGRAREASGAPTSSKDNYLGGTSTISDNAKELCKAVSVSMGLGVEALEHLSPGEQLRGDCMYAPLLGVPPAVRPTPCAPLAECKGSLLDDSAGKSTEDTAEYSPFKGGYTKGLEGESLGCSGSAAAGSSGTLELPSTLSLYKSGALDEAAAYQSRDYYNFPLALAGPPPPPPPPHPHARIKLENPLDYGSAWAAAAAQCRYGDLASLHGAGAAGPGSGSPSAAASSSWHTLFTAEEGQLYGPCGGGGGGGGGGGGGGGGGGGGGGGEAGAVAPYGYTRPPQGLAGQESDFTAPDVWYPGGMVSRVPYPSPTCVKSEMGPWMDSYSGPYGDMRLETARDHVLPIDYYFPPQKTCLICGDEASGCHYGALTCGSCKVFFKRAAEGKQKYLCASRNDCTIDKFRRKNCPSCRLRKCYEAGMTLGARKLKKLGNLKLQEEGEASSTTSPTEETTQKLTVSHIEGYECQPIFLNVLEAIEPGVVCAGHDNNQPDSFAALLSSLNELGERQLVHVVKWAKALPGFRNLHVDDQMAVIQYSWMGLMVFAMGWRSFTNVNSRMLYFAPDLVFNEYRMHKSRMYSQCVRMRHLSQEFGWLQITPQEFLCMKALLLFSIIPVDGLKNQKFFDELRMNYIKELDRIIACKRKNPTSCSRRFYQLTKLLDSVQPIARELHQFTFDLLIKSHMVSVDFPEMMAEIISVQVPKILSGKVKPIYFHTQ
Settings: from VCaP GRE2-luciferase IC50
We use 0.5 as the dividing line for Ligand Efficiency (LE): on or above the line is 1, below is 0.

1. Cc1ccc(C(N)=O)cc1-c1ccc2c(cnn2C)c1; 1
2. Cn1ncc2cc(-c3cc(C(N)=O)cnc3SCc3ccccc3)ccc21; 0
3. CSc1ccc(C(=O)O)cc1-c1cncnc1; 1
4. CSc1ccc(C(N)=O)cc1-c1ccc(F)c(O)c1; 1
5. CSc1ccc(C(N)=O)cc1-c1c(C)noc1C; 1
6. CSc1ccc(C(N)=O)cc1-c1ccc2[nH]ccc2c1; 1
7. Cn1ncc2cc(-c3cc(C(N)=O)ccc3NCCN3CCCCC3)ccc21; 0
8. CSc1ccc(C(N)=O)cc1-c1ccc2cn[nH]c2c1; 1
9. CSc1ccc(C(N)=O)cc1-c1ccc2cnccc2c1; 1
10. CSc1ccc(C(N)=O)cc1-c1cc(O)cc(F)c1; 1
11. CSc1ccc(C(N)=O)cc1-c1ccc2ncccc2c1; 1
12. Cn1ncc2cc(-c3cc(C(N)=O)ccc3F)ccc21; 1
13. CSc1ccc(C(N)=O)cc1-c1ccc2c(ccn2C)c1; 1
14. Cn1ncc2cc(-c3cc(C(N)=O)ccc3C(F)(F)F)ccc21; 0
15. COc1cc(-c2cc(C(N)=O)ccc2SC)ccc1N; 1
16. CSc1ccc(C(N)=O)cc1-c1ccccc1; 1
17. CSc1ccc(C(=O)N2CCCCC2)cc1-c1cncnc1; 1
18. CSc1ccc(C(N)=O)cc1-c1ccc2ocnc2c1; 1
